All figures here come from ChEMBL document CHEMBL4823296.

Non-standard residues stand in square brackets, D forms with d. Residues, ends and D or L forms follow the SMILES beside them. Trp(5-OH) = N[C@@H](Cc1c[nH]c2ccc(O)cc12)C(=O)O; Bip = N[C@@H](Cc1ccc(-c2ccccc2)cc1)C(=O)O; hArg = N=C(N)NCCCC[C@H](N)C(=O)O; GABA = NCCCC(=O)O
So I've got deltaH readings for Ephrin type-A receptor 4 (Homo sapiens, UniProt P54764), take a look.
Reply with just the number (in kcal/mol).

Input line: Report measured deltaH; entry is N=C(N)NCCC[C@H](NC(=O)[C@H](Cc1ccc(-c2ccccc2)cc1)NC(=O)[C@H](Cc1c[nH]c2ccc(O)cc12)NC(=O)CCCN)C(N)=O (H-[GABA][Trp(5-OH)][Bip]R-NH2)
Output line: -11

Input line: Report measured deltaH; entry is N=C(N)NCCCC[C@H](NC(=O)[C@H](Cc1ccc(-c2ccc(Cl)cc2)cc1)NC(=O)[C@H](Cc1c[nH]c2ccc(O)cc12)NC(=O)CCCN)C(N)=O
Output line: -10.4

Input line: Report measured deltaH; entry is N=C(N)NCCCC[C@H](NC(=O)[C@H](Cc1ccc(-c2ccccc2)cc1)NC(=O)[C@H](Cc1c[nH]c2ccccc12)NC(=O)CCCN)C(N)=O (H-[GABA]W[Bip][hArg]-NH2)
Output line: -10.7
